Taken from patent US20230220010A1.

test: Cytotoxicity assay, ALAMARBLUE, HEK cells
Ends that are not written are not given here.
EC50 under 20 µM gets fulfilled, anything at or over 20 µM gets not fulfilled.

substance	cat
RRGWALRLNLYYGRR-NH2 [*ARNY*, RRGWALRLNLYYGRR]	not fulfilled
RRGWNLRLRLVYGRR-NH2 [*NRRV*, RRGWNLRLRLVYGRR]	fulfilled
RRGWALRLVLAY-NH2 [*ARVA, RRGWALRLVLAY]	not fulfilled
RRGWVLDLVLYYGRR-NH2 [*VDVY*, RRGWVLDLVLYYGRR]	not fulfilled
RRGFSLKLALLKDGWLLLRLGYGRR-NH2 [IT1-b]	not fulfilled
RRGWRLNLNLYYGRR-NH2 [*RNNY*, RRGWRLNLNLYYGRR]	fulfilled
RRGFSLKLLLSYRGWALLRLGYGRR-NH2 [IT1-a]	fulfilled
GIGAVLKGLATGLPAGISWIKQQAQL-NH2 [MelN4, reference compound]	not fulfilled
RRGFSLKLKLLYRGWALALRLGYGRR-NH2 [IT1-e]	not fulfilled
RRGWTLNLTLNYGRR-NH2 [*TNTN*, RRGWTLNLTLNYGRR]	not fulfilled
RRGWNLALTLTYGRR-NH2 [*NATT*, RRGWNLALTLTYGRR]	not fulfilled
RRRRRRRRRWC-NH2 [Arg9, RRRRRRRRRWC, reference compound]	not fulfilled
RRGFSLKLRLLYRGWGLALRLGYGRR-NH2 [IT1-d]	not fulfilled
